System: XIP peptide (Xip251-270) binding
experiment notes: small-molecule binders of XIP peptide, primary screen, biochemical, small-molecule microarray, fluorescence 635/667 nm, 0.1 µg/mL protein (AID 1182)
conditions: fluorescent protein binding, 635 nm, higher = more signal, called active from +8 up or from −8 down
For each entry below, report its composite z-score value.
# answer = number (no unit)

## Input // fetch XIP peptide (Xip251-270) binding composite z-score for [N-]=[N+]=NCc1ccccc1[C@@H]1OC(c2ccc(OCCCO)cc2)=N[C@]1(Cc1ccccc1)C(=O)NCCN1CCOCC1
## Output -0.256

## Input // fetch XIP peptide (Xip251-270) binding composite z-score for CCOC(=O)C1=CCN(S(=O)(=O)c2ccc(C)cc2)C1c1ccccc1 (stereo not drawn)
## Output 0.866

## Input // fetch XIP peptide (Xip251-270) binding composite z-score for [N-]=[N+]=NC[C@H](Cc1ccccc1)NC(=O)c1ccccc1
## Output -0.359

## Input // fetch XIP peptide (Xip251-270) binding composite z-score for COCCOC(=O)N1C(=O)[C@@]2(c3cc(C#CC4=CCCCC4)ccc31)[C@H](c1ccc(O)cc1)N1[C@H](c3ccccc3)[C@H](c3ccccc3)OC(=O)[C@H]1[C@@H]2C(=O)NC[C@H](O)c1ccccc1
## Output 0.816

## Input // fetch XIP peptide (Xip251-270) binding composite z-score for O=C(O)[C@@H]1C[C@@H]2C(=O)N3CCC[C@H]3C(=O)N2[C@@H]1c1cccc(OCCO)c1
## Output 2

## Input // fetch XIP peptide (Xip251-270) binding composite z-score for C=C[C@@H](C)[C@H](O)c1ccc(OCCO)cc1
## Output 0.313

## Input // fetch XIP peptide (Xip251-270) binding composite z-score for COCC(=C=CC[C@@H](O)c1cccc(OCCO)c1)CCO
## Output 1.14

## Input // fetch XIP peptide (Xip251-270) binding composite z-score for C=CCN1C(=O)[C@]2(O[C@H](CCO)[C@@H]([Si](C)(C)c3ccc(OC)cc3)[C@@H]2C)c2cc(NC(=O)c3ccc(OC)cc3)ccc21
## Output -0.129

---

experiment notes: binders of probe aFGF10 on microarray, primary screen, stem cell growth factor project, biochemical, small-molecule microarray, fluorescence 635/667 (AID 1071);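 also: score merges 667 nm spot intensity and signal to noise from triplicate slides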
conditions: higher = more signal
For each entry below, report its composite z-score value.

## Input If you can, please state the reported composite z-score value of C=C[C@@H](OC)[C@H](OC(=O)Nc1ccc(OC)cc1)c1ccc(OC)c(O)c1 .
## Output -0.624

## Input If you can, please state the reported composite z-score value of CCCCC(=O)N(CCN1CCOCC1)[C@@H]1CC(C(=O)NCCO)=C[C@H](Oc2c(I)cc(CO)cc2OC)[C@H]1O .
## Output 0.511

## Input If you can, please state the reported composite z-score value of NCCCCCNC(=O)[C@@H]1C[C@@H]2C(=O)N3CCC[C@H]3C(=O)N2[C@@H]1c1ccc(O)cc1 .
## Output 0.42

## Input If you can, please state the reported composite z-score value of C=C(/C(=C/C[C@H](OC(=O)c1ccncc1)c1cccc(OCCO)c1)c1cnc2ccccc2c1)C(C)C .
## Output 1.34

## Input If you can, please state the reported composite z-score value of C=C(CCCC)C(=O)CC[C@H](OC(C)=O)c1ccc(OCCO)cc1 .
## Output -0.253

## Input If you can, please state the reported composite z-score value of COC(=O)[C@@]1(Cc2ccccc2CN=[N+]=[N-])N=C(c2ccc(OCCCO)cc2)O[C@H]1c1ccccc1CN=[N+]=[N-] .
## Output 0.0746

## Input If you can, please state the reported composite z-score value of [N-]=[N+]=NCc1ccccc1[C@H]1OC(c2ccc(OCCCO)cc2)=N[C@@]1(Cc1ccccc1)C(=O)NCCN1CCOCC1 .
## Output 1.09

## Input If you can, please state the reported composite z-score value of Cc1ccc(S[C@]2(C(=O)NC(C)C)CC(=O)N(C(C)C)[C@@H]2c2ccc(CO)cc2I)cc1 .
## Output 0.145
